system: MS2 coat protein; experiment: apparent KD of MS2 coat protein; designed switch direction (-1 OFF switch, 1 ON switch): -1; higher = weaker reporter binding; settings: input ligand: none
Classification field: enter 1 for apparent KD of MS2 coat protein values not below 100 nM, -1 for values below it.

Query string: Record AAACGGGUGUCCUCGUUUUCAACAUGAGGAUCACCCAUGUUCGAGGAUAUCCAAUAAGCUCUUCAGGAGAAGGCGAACAUAAAA [Anenence] (Eterna round: R96, puzzle: Exclusion NG 3) ; criterion: apparent KD of MS2 coat protein no lower than 100 nM. Met?
Result string: -1

Query string: Determine whether measured apparent KD of MS2 coat protein meets or exceeds 100 nM for UUUAAUUUUUUUUUUUUACAAGCUUUUUGCUCGUCUUAUACAUGAGGAUCACCCAUGUGGGUAGAGAGUAAAUUAUC [JMF 59] (Eterna round: R96, puzzle: Sensor v3, turn-off variant 2)
Result string: -1

Query string: Does the reported apparent KD of MS2 coat protein for UGUCCAAUACAGGAUAUUCUCGCGUAGUAGCAAGGAGAAGGGUAGACAUGAGGAUCACCCAUGUGAUUCAUCUG [Eternabot (L2) Solution 68] (Eterna round: R97, puzzle: Exclusion 6) fall at or above the 100 nM mark?
Result string: 1

Query string: Is reported apparent KD of MS2 coat protein greater than or equal to 100 nM here: CACCAUCGUGUAAGGAUAUCGAGGCUUAGCGGGUGUGAGAAGGUACAUGAGGAUCACCCAUGUUACGAUUUGCG [Eternabot (L1) Solution 77] (Eterna round: R97, puzzle: Brourd's mod of Exclusion 4)
Result string: -1

Query string: Determine whether measured apparent KD of MS2 coat protein meets or exceeds 100 nM for GUAACAUGCUGGUGAUCAUACAUGAGGAUCACCCAUGUAACAAGCUUUUUGCUCGUCUUAAUUUAAUUGAUUACUAG [Stov1/8-A2] (Eterna round: R97, puzzle: Sensor, turn-off variant 1)
Result string: 1

Query string: Is apparent KD of MS2 coat protein at least 100 nM? Consider GAUUAACAUGAGGAUCACCCAUGUGAGGAUAUGGACUUGCCCACUUAACCAUUAGAGUCUAGAAGGCGCAUCUC [1986#28] (Eterna round: R97, puzzle: Exclusion 1)
Result string: -1

Query string: Exam item: decide whether the reported apparent KD of MS2 coat protein for UCUUUGUCAGGAUAUCGUGCAUACAACGAAAGUUCUAUGUGCGAGAAGGGACAUGAGGAUCACCCAUGUUACGG [Omei Ex4 A4] (Eterna round: R97, puzzle: Exclusion 4) is at least 100 nM.
Result string: 1

Query string: hey, is apparent KD of MS2 coat protein for this one >= 100 nM? CCACGACAUGAGGAUCACCCAUGUGAGGAUAUGGCCAGUAUGGCGUGAGCUGAAUCAAUCAGAAGGCGCGUGGG [salish99_ex1_r4_056] (Eterna round: R97, puzzle: Exclusion 1)
Result string: 1

Query string: Check if apparent KD of MS2 coat protein >= 100 nM (inclusive). Item: GCUUGCUUUUUGGUUUUCAACAUGAGGAUCACCCAUGUUCGUCUUGUGCCCGGGCCCGGGCGGUGCCCGGGCCCGGG [A 9%] (Eterna round: R97, puzzle: Sensor, turn-off variant 1)
Result string: -1

Query string: Hello, I need to know if GAAUCGACAGGAUAUACAUGAGGAUCACCCAUGUAGUCAGAGAUGAUACCUCAACCUAGUAGAAGGGUCAGCGG [Eternabot (L2) Solution 17] (Eterna round: R97, puzzle: Exclusion 3) has measured apparent KD of MS2 coat protein not below 100 nM. Thanks!
Result string: -1

Query string: Hi, just wondering whether ACAUGAGGAUCACCCAUGUCCGGUUGGUCUGUUCCGGCUGUCGAGGAUAUAGUCCGGUGUUCGCGCUAGAAGGCGAGGGCUGGA [Aenatbe mod 47] (Eterna round: R96, puzzle: Exclusion NG 3) shows apparent KD of MS2 coat protein of 100 nM or higher.
Result string: 1

Query string: Exam item: decide whether the reported apparent KD of MS2 coat protein for GCAGGUUAAGUCAGGAUAUACCUCUGGAAACAGAGGUAGAAGGGACAUGAGGAUCACCCAUGUUUCUCAUCUGC [Mod of Eli 3 - Jieux - Brourd's mod of Exclusion 4] (Eterna round: R97, puzzle: Brourd's mod of Exclusion 4) is at least 100 nM.
Result string: -1

Query string: Check the entry GUUGCUACUGAGGAUAUUAUUUUACCCGACUGAUAAGAAGGCAGUACAUGAGGAUCACCCAUGUGGGUAGCCAG [Polaris15] (Eterna round: R97, puzzle: Exclusion 6) : does apparent KD of MS2 coat protein equal or exceed 100 nM?
Result string: -1

Query string: Form field: apparent KD of MS2 coat protein at least 100 nM? Entry: CUGAGUAGUCAGGAUAUGCUGUACAAAAGUACAGCAGAAGGGAUUACAUGAGGAUCACCCAUGUGAACUUCAUG [)mei Ex6 B21] (Eterna round: R97, puzzle: Exclusion 6)
Result string: 1

Query string: Given the entry GAAUAACAAGUGAGGAUAUGGAGUUGGGAGCCAGUUCAGAAGGCACAUGAGGAUCACCCAUGUGAACCGCAGCU [Eternabot (L2) Solution 45] (Eterna round: R97, puzzle: Brourd's mod of Exclusion 4) , answer whether its apparent KD of MS2 coat protein meets or surpasses 100 nM.
Result string: -1

Query string: Reported apparent KD of MS2 coat protein reaches at least 100 nM for GGACCGCGGCAAGGAUAUCUUUGUCAACAUAAAACAUGAGGAUCACCCAUGUGCAUCUUCGUGUGAGAGAAGGUGCGGCAGUCC [Isisgeri] (Eterna round: R96, puzzle: Exclusion NG 2) ?
Result string: 1

Query string: Is it the case that UAAAAGAAAGUAAGGAUAUCUAAAUUGGAAAAGAGAGAGAAGGUACAUGAGGAUCACCCAUGUAGGGUAUCCUG [Ritien] (Eterna round: R97, puzzle: Brourd's mod of Exclusion 4) has apparent KD of MS2 coat protein reaching or exceeding 100 nM?
Result string: -1
